biological target: T1, HLA-A*02:01 in complex with the EGFR peptide … conjugated with osimertinib (human, osimertinib covalently bound to Cys); assay: yeast display
T1 construct: also called HLA-A*02:01_EGFR-osimertinib; osimertinib-EGFR/HLA-A*02

{"columns": ["binder", "binding result"],
 "data": [
  ["EO_Q24 (scFv, V domains shown, yeast-display scFv) VH: EVQLVESGGGLVQPGGSLRLSCAASGFTISSSYIHWVRQAPGKGLEWVAYISPSYGSTSYADSVKGRFTISADTSKNTAYLQMNSLRAEDTAVYYCAREYVTMALDYWGQGTLVTVSS VL: DIQMTQSPSSLSASVGDRVTITCRASQSVSSAVAWYQQKPGKAPKLLIYSASSLYSGVPSRFSGSRSGTDFTLTISSLQPEDFATYYCQQYSEWPETFGQGTKVEIKR", "binds"],
  ["EO_Q14 (scFv, V domains shown, yeast-display scFv) VH: EVQLVESGGGLVQPGGSLRLSCAASGFTISSSYIHWVRQAPGKGLEWVAYISPSYGSTSYADSVKGRFTISADTSKNTAYLQMNSLRAEDTAVYYCARESITMSPDYWGQGTLVTVSS VL: DIQMTQSPSSLSASVGDRVTITCRASQSVSSAVAWYQQKPGKAPKLLIYSASSLYSGVPSRFSGSRSGTDFTLTISSLQPEDFATYYCQQYSSWPITFGQGTKVEIKR", "binds"],
  ["EO_Q12 (scFv, V domains shown, yeast-display scFv) VH: EVQLVESGGGLVQPGGSLRLSCAASGFTISSSYIHWVRQAPGKGLEWVAYISPSYGSTSYADSVKGRFTISADTSKNTAYLQMNSLRAEDTAVYYCARELTTMSIDYWGQGTLVTVSS VL: DIQMTQSPSSLSASVGDRVTITCRASQSVSSAVAWYQQKPGKAPKLLIYSASSLYSGVPSRFSGSRSGTDFTLTISSLQPEDFATYYCQQYASWPITFGQGTKVEIKR", "binds"],
  ["EO_Q04 (scFv, V domains shown, yeast-display scFv) VH: EVQLVESGGGLVQPGGSLRLSCAASGFTISSSYIHWVRQAPGKGLEWVAYISPSYGSTSYADSVKGRFTISADTSKNTAYLQMNSLRAEDTAVYYCARESVTMTKDYWGQGTLVTVSS VL: DIQMTQSPSSLSASVGDRVTITCRASQSVSSAVAWYQQKPGKAPKLLIYSASSLYSGVPSRFSGSRSGTDFTLTISSLQPEDFATYYCQQYSDWPITFGQGTKVEIKR", "binds"],
  ["EO_Q20 (scFv, V domains shown, yeast-display scFv) VH: EVQLVESGGGLVQPGGSLRLSCAASGFTISSSYIHWVRQAPGKGLEWVAYISPSYGSTSYADSVKGRFTISADTSKNTAYLQMNSLRAEDTAVYYCAREEVTMTPDYWGQGTLVTVSS VL: DIQMTQSPSSLSASVGDRVTITCRASQSVSSAVAWYQQKPGKAPKLLIYSASSLYSGVPSRFSGSRSGTDFTLTISSLQPEDFATYYCQQYSDWPITFGQGTKVEIKR", "binds"]
]}
